# COMPOUND, melting point
records = [
    ("COCCOc1ccc(/C=C(\\C)C(=O)NS(=O)(=O)c2ccc(Cl)cc2)c(Oc2ncc(C(F)(F)F)cc2Cl)c1 [Example 230]", "145.7 to 145.8 °C"),
    ("COCCOc1cc(/C=C/C(=O)NS(=O)(=O)CCC(C)C)n(Cc2ccc(Cl)cc2Cl)n1 [Example 110]", "110 to 114 °C"),
    ("CCCCCS(=O)(=O)NC(=O)/C=C/c1ccc(OCCOC)cc1Nc1ccc(C(F)(F)F)cc1Cl [Example 184]", "173.5 to 174.8 °C"),
    ("CCCCOc1cc(/C=C/C(=O)NS(=O)(=O)CCC(C)C)n(Cc2ccc(C(F)(F)F)cc2Cl)n1 [Example 150]", "89.5 to 90.5 °C"),
    ("CCCCCS(=O)(=O)NC(=O)CCc1ccc(OCCOC)cc1OCc1nc(-c2ccccc2)oc1C [Example 173]", "95.9 to 96.7 °C"),
    ("CCCCCNS(=O)(=O)NC(=O)/C=C/c1ccc(OCCOC)cc1Oc1ncc(C(F)(F)F)cc1Cl [Example 215]", "120 to 122 °C"),
    ("COCCOc1ccc(/C=C/C(=O)NS(=O)(=O)c2ccccc2Cl)c(Oc2ncc(C(F)(F)F)cc2Cl)c1 [Example 235]", "168 to 169 °C"),
    ("CC(C)Oc1ccc(CCC(=O)NS(=O)(=O)c2ccccc2)c(Oc2ncc(C(F)(F)F)cc2Cl)c1 [Example 4]", "129 to 129.5 °C"),
    ("CCCCCC(=O)NS(=O)(=O)/C=C/c1cc(OCCCC)nn1Cc1ccc(Cl)cc1Cl [Example 131]", "117 to 119 °C"),
    ("C/C(=C\\c1ccc(OC(C)C)cc1Oc1ncc(C(F)(F)F)cc1Cl)C(=O)NS(=O)(=O)NCCc1ccccn1 [Example 471]", "121 to 123 °C"),
    ("COCCCNS(=O)(=O)NC(=O)OCc1ccc(OCCOC)cc1Oc1ncc(C(F)(F)F)cc1Cl [Example 75]", "149 to 149.5 °C"),
    ("CCCCCS(=O)(=O)NC(=O)/C=C/c1ccc(C)n1Cc1ccc(Cl)cc1Cl [Example 457]", "189 to 190 °C"),
    ("COCCOc1ccc(CCCOC(=O)N2CCOCC2)c(Oc2ncc(C(F)(F)F)cc2Cl)c1 [Example 48]", "82.3 to 82.4 °C"),
    ("CCCCCS(=O)(=O)NC(=O)CCc1ccc(OCCOC)cc1OCC1CC1 [Example 167]", "81.7 to 82.8 °C"),
    ("CCCCCS(=O)(=O)NC(=O)/C=C/c1ccc(OCCCOCCOC)cc1Oc1ncc(C(F)(F)F)cc1Cl [Example 254]", "103 to 105 °C"),
    ("COCCOc1ccc(CCCOC(=O)NS(=O)(=O)NCCc2cccs2)c(Oc2ncc(C(F)(F)F)cc2Cl)c1 [Example 207]", "117.5 to 118 °C"),
]

---

EXPERIMENTAL_TARGET: PPARγ-RXRα heterodimer (Homo sapiens, UniProt P37231)
Sequence (P37231 29-505): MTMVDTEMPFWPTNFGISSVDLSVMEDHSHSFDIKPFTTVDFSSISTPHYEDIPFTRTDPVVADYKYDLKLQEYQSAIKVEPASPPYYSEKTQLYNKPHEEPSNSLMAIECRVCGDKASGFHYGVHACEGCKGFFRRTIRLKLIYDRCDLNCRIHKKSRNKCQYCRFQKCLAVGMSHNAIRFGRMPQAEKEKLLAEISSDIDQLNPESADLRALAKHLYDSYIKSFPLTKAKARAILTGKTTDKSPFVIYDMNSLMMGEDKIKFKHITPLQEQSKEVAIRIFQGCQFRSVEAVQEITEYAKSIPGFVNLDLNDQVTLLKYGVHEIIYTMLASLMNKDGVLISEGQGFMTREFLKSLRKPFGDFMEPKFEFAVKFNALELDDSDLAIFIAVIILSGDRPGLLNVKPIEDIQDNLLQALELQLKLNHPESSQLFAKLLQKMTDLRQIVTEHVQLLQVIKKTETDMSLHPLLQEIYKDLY
Sequence (P19793 whole entry partner): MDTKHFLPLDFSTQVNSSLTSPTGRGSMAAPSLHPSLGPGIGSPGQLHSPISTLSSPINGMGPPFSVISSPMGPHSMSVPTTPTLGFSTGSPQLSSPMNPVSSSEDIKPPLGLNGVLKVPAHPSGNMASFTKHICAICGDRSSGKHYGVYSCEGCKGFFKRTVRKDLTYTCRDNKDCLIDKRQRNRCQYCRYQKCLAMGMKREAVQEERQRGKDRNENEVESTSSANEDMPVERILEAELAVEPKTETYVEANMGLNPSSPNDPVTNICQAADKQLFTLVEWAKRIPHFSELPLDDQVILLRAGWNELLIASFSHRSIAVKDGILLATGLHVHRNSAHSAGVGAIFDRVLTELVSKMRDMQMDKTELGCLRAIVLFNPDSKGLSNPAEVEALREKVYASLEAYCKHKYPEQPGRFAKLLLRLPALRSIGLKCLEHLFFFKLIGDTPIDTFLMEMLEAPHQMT
ASSAY_PROTOCOL: PPARγ-RXRα heterodimer ligand activity (luciferase reporter, PPARγ:RXRα:4ERPP/CHO-K1 cells)
PROTOCOL_CONDITIONS: concentration showing 50% of the maximum luciferase induction rate; CHO-K1 reporter cells, one day incubation
pEC50: −log10 of the molar value.
Documented pEC50 across a set of compounds
QUANTITY_MEASURED: pEC50

# COMPOUND, QUANTITY_MEASURED, ENDPOINT_RESULT
records = [
    ("CCCCCS(=O)(=O)NC(=O)/C=C/c1cc(OCC2CC2)nn1Cc1ccc(C(F)(F)F)cc1Cl [Example 151]", "pEC50", 8.14),
    ("CCCCCS(=O)(=O)NC(=O)CCc1ccc(OCCCOC)cc1Oc1ncc(C(F)(F)F)cc1Cl [Example 258]", "pEC50", 8.96),
    ("CCCCCS(=O)(=O)NC(=O)CCc1ccc(OC(C)C)cc1Oc1ncc(C(F)(F)F)cc1Cl [Example 2]", "pEC50", 8.59),
    ("CCOCC(COCC)Oc1ccc(CCCOC(=O)NS(=O)(=O)NCCOC(C)C)c(Oc2ncc(C(F)(F)F)cc2Cl)c1 [Example 430]", "pEC50", 9.02),
    ("COCCOc1ccc(CCCOC(=O)NS(=O)(=O)NC2CCC(C)CC2)c(Oc2ncc(C(F)(F)F)cc2Cl)c1 (stereo not drawn) [Example 205]", "pEC50", 8.51),
    ("CCCCCS(=O)(=O)NC(=O)/C=C/c1ccc(OCC(C)(C)O)cc1Oc1ncc(C(F)(F)F)cc1Cl [Example 250]", "pEC50", 8.14),
    ("CCCCCS(=O)(=O)NC(=O)/C=C/c1ccc(OC(C)C)cc1Oc1ncc(C(F)(F)F)cc1Cl [Example 13]", "pEC50", 7.59),
    ("CCCCCS(=O)(=O)NC(=O)CCc1ccc(OCCN2CCCC2=O)cc1Oc1ncc(C(F)(F)F)cc1Cl [Example 47]", "pEC50", 8.47),
    ("CCCCCS(=O)(=O)NC(=O)/C=C/c1cc(C2CC2)nn1Cc1ccc(C(F)(F)F)cc1Cl [Example 155]", "pEC50", 7.92),
    ("CC(C)Oc1ccc(CCCOC(=O)NS(=O)(=O)NCCc2ccccn2)c(Oc2ncc(C(F)(F)F)cc2Cl)c1 [Example 444]", "pEC50", 8.47),
    ("CCCCCS(=O)(=O)NC(=O)/C=C/c1ccc(OCCO)cc1Oc1ncc(C(F)(F)F)cc1Cl [Example 218, monohydrate]", "pEC50", 7.10),
    ("COCCOc1ccc(CCCOC(=O)NS(=O)(=O)NCCOC(C)C)c(Oc2ncc(Cl)cc2Cl)c1 [Example 429]", "pEC50", 8.42),
    ("CCCCCNS(=O)(=O)NC(=O)/C(C)=C/c1ccc(OC(C)C)cc1Oc1ncc(C(F)(F)F)cc1Cl [Example 224]", "pEC50", 7.80),
    ("CCCCCS(=O)(=O)NC(=O)/C=C/c1ccc(OCCOCCOC)cc1Oc1ncc(C(F)(F)F)cc1Cl [Example 256]", "pEC50", 7.89),
    ("CCCCCS(=O)(=O)NC(=O)/C=C/c1ccc(OCCC2(C)OCCO2)cc1Oc1ncc(C(F)(F)F)cc1Cl [Example 453]", "pEC50", 8.14),
]
